This collection of values is drawn from patent EP4707292A2.

# TARGET: T1, Adeno-associated virus 9 (AAV9) virion (adeno-associated virus 9)
# T1 construct: Intact virion; capsid of VP1, VP2, VP3; also called AAV9/luc; AAV9 capsid
# PROTOCOL NOTES: co-IP with ADK9/LC-MS/MS, AAV9 + human serum vs control

[
  {
    "BINDER": "Isoform 2 of Haptoglobin-related protein (other, also called HPR) MHVCVCVCVCVYMPVCVDACMCCEAGRPAFRSFLFSLCSDLGAVISLLLWGRQLFALYSGNDVTDISDDRFPKPPEIANGYVEHLFRYQCKNYYRLRTEGDGVYTLNDKKQWINKAVGDKLPECEAVCGKPKNPANPVQRILGGHLDAKGSFPWQAKMVSHHNLTTGATLINEQWLLTTAKNLFLNHSENATAKDIAPTLTLYVGKKQLVEIEKVVLHPNYHQVDIGLIKLKQKVLVNERVMPICLPSKNYAEVGRVGYVSGWGQSDNFKLTDHLKYVMLPVADQYDCITHYEGSTCPKWKAPKSPVGVQPILNEHTFCVGMSKYQEDTCYGDAGSAFAVHDLEEDTWYAAGILSFDKSCAVAEYGVYVKVTSIQHWVQKTIAEN",
    "fold change (fold)": 2.82
  },
  {
    "BINDER": "Ig gamma-2 chain C region (other, also called IGHG2) ASTKGPSVFPLAPCSRSTSESTAALGCLVKDYFPEPVTVSWNSGALTSGVHTFPAVLQSSGLYSLSSVVTVPSSNFGTQTYTCNVDHKPSNTKVDKTVERKCCVECPPCPAPPVAGPSVFLFPPKPKDTLMISRTPEVTCVVVDVSHEDPEVQFNWYVDGVEVHNAKTKPREEQFNSTFRVVSVLTVVHQDWLNGKEYKCKVSNKGLPAPIEKTISKTKGQPREPQVYTLPPSREEMTKNQVSLTCLVKGFYPSDISVEWESNGQPENNYKTTPPMLDSDGSFFLYSKLTVDKSRWQQGNVFSCSVMHEALHNHYTQKSLSLSPGK",
    "fold change (fold)": 5.06
  },
  {
    "BINDER": "Beta-2-glycoprotein 1 (other, also called APOH) GRTCPKPDDLPFSTVVPLKTFYEPGEEITYSCKPGYVSRGGMRKFICPLTGLWPINTLKCTPRVCPFAGILENGAVRYTTFEYPNTISFSCNTGFYLNGADSAKCTEEGKWSPELPVCAPIICPPPSIPTFATLRVYKPSAGNNSLYRDTAVFECLPQHAMFGNDTITCTTHGNWTKLPECREVKCPFPSRPDNGFVNYPAKPTLYYKDKATFGCHDGYSLDGPEEIECTKLGNWSAMPSCKASCKVPVKKATVVYQGERVKIQEKFKNGMLHGDKVSFFCKNKEKKCSYTEDAQCIDGTIEVPKCFKEHSSLAFWKTDASDVKPC",
    "fold change (fold)": 3.43
  },
  {
    "BINDER": "Ig gamma-3 chain C region (other, also called IGHG3) ASTKGPSVFPLAPCSRSTSGGTAALGCLVKDYFPEPVTVSWNSGALTSGVHTFPAVLQSSGLYSLSSVVTVPSSSLGTQTYTCNVNHKPSNTKVDKRVELKTPLGDTTHTCPRCPEPKSCDTPPPCPRCPEPKSCDTPPPCPRCPEPKSCDTPPPCPRCPAPELLGGPSVFLFPPKPKDTLMISRTPEVTCVVVDVSHEDPEVQFKWYVDGVEVHNAKTKPREEQYNSTFRVVSVLTVLHQDWLNGKEYKCKVSNKALPAPIEKTISKTKGQPREPQVYTLPPSREEMTKNQVSLTCLVKGFYPSDIAVEWESSGQPENNYNTTPPMLDSDGSFFLYSKLTVDKSRWQQGNIFSCSVMHEALHNRFTQKSLSLSPGK",
    "fold change (fold)": 6.33
  },
  {
    "BINDER": "Apolipoprotein C-I (other, also called APOC1) TPDVSSALDKLKEFGNTLEDKARELISRIKQSELSAKMREWFSETFQKVKEKLKIDS",
    "fold change (fold)": 2
  },
  {
    "BINDER": "Glutathione peroxidase 3 (enzyme, also called GPX3) QSRGQEKSKMDCHGGISGTIYEYGALTIDGEEYIPFKQYAGKYVLFVNVASYUGLTGQYIELNALQEELAPFGLVILGFPCNQFGKQEPGENSEILPTLKYVRPGGGFVPNFQLFEKGDVNGEKEQKFYTFLKNSCPPTSELLGTSDRLFWEPMKVHDIRWNFEKFLVGPDGIPIMRWHHRTTVSNVKMDILSYMRRQAALGVKRK",
    "fold change (fold)": 2.74
  }
]
